Assay: HSP distance Ra and relative energy difference RED of solvents versus plant wax HSP values
Conditions: HSP distance to lower plant wax HSP values (δD=16.0-16.3, δP 0-2.5, δH=0-3.1)
I'd appreciate it if you could supply Ra 2 values for the items below.
One number for each entry.

As a guide, the following entries are already answered.
| molecule | measured_parameter | observed_value |
| --- | --- | --- |
| CCCCCCOC(C)=O [hexyl acetate] | Ra 2 | 3.0 |
| CC(=O)OC(C)(C)C [t-Butyl Acetate] | Ra 2 | 4.1 |
| CCCCOC(=O)c1ccccc1 [butyl benzoate] | Ra 2 | 5.6 |
| CC1=CC(=O)CC(C)(C)C1 | Ra 2 | 7.2 |
| CC1=CC=C(C(C)C)CC1 | Ra 2 | 2.1 |
| O=C(OCc1ccccc1)c1ccccc1 [Benzyl Benzoate] | Ra 2 | 8.1 |
| O=C1OCCO1 [Ethylene Carbonate] | Ra 2 | 19.6 |
| CC(=O)OCCC(C)C [Iso-Pentyl Acetate] | Ra 2 | 4.4 |
| CCCCCCCC(=O)OC [methyl octanoate] | Ra 2 | 2.8 |
| CCCCOCCO | Ra 2 | 9.6 |

Could you tell me Ra 2 for each of these molecules? They are listed below.
1. C=C(C)[C@H]1CC=C(C)CC1
2. CCCCCCCO
3. Cc1cccc(O)c1

1: 2.3; 2: 9.3; 3: 12.2

====

I'd appreciate it if you could supply RED 2 values for the items below.
Test: HSP distance Ra and relative energy difference RED of solvents versus plant wax HSP values
Details: RED=Ra 2/Ro, Ro=7.1
One number for each entry.

Could you tell me RED 2 for each of these compounds? They are listed below.
1. OC1CCCCC1 [cyclohexanol]
2. CCCCCCCC/C=C\CCCCCCCC(=O)OC [Methyl Oleate]
3. CC1=CC=C(C(C)C)CC1 [alpha terpinene]
4. C=C(C)[C@H]1CC=C(C)CC1 [d-limonene]

[1.51, 0.27, 0.30, 0.32]

====

I'd appreciate it if you could supply Ra 2 values for the items below.
Assay: HSP distance Ra and relative energy difference RED of solvents versus plant wax HSP values
Conditions: HSP distance to lower plant wax HSP values (δD=16.0-16.3, δP 0-2.5, δH=0-3.1)

| compound | measured_parameter | observed_value |
| --- | --- | --- |
| CC1=CC[C@@H](C(C)(C)O)CC1 | Ra 2 | 8.4 |
| CC(C)(C)O | Ra 2 | 12.1 |
| CC1COC(=O)O1 (stereo not drawn) [Propylene Carbonate] | Ra 2 | 17.2 |
| CC12CCC(CC1)C(C)(C)O2 | Ra 2 | 2.1 |
| CCCCCCC | Ra 2 | 4.4 |
| C1CCCCC1 | Ra 2 | 4.0 |
| C=CC(C)(O)CCC=C(C)C (stereo not drawn) | Ra 2 | 3.8 |
| CCCCOC(=O)CC(C)O (stereo not drawn) [butyl-3-hydroxybutyrate] | Ra 2 | 9.3 |

Could you tell me Ra 2 for each of these compounds? They are listed below.
1. CCCCCCCC/C=C\CCCCCCCC(=O)OC [Methyl Oleate]
2. CCCCCCCCCCCC(=O)OC [methyl dodecanoate]
3. OC1CCCCC1

1. 1.9
2. 2.4
3. 10.7

Report measured Ra 2; entry is CCCCOC(C)=O [n-Butyl Acetate]
3.6

====

Test: HSP distance Ra and relative energy difference RED of solvents versus plant wax HSP values
Conditions: RED=Ra 1/Ro, Ro=7.1
Hi! Could you tag entries with RED 1 below 2 as rule met, and those at or above as rule not met? Much appreciated.

# example entries with known answers
| molecule | assigned_category |
| --- | --- |
| CC1=CC(=O)CC(C)(C)C1 [isophorone] | rule met |
| CCCCOC(=O)CC(C)O (stereo not shown) [butyl-3-hydroxybutyrate] | rule met |
| CCCCOC(C)=O [n-Butyl Acetate] | rule met |
| CC1COC(=O)O1 (stereo not shown) [Propylene Carbonate] | rule not met |
| CCCCCCCO [heptanol] | rule met |
| CC12CCC(CC1)C(C)(C)O2 [eucalyptol] | rule met |
| CCCCCCOC(C)=O [hexyl acetate] | rule met |
| Cc1cccc(O)c1 [m-Cresol] | rule not met |
| CC1=CC[C@@H](C(C)(C)O)CC1 [alpha terpineol] | rule met |
| CCCCOC(=O)CC [n-Butyl Propionate] | rule met |

Field: below-cutoff. Rule: recorded RED 1 strictly less than 2. Subject: C=CC(C)(O)CCC=C(C)C (stereo not shown) [linalool]
rule met

Field: below-cutoff. Rule: recorded RED 1 strictly less than 2. Subject: CC(=O)OC(C)(C)C [t-Butyl Acetate]
rule met

Field: below-cutoff. Rule: recorded RED 1 strictly less than 2. Subject: CC(C)(C)O [t-Butyl Alcohol]
rule not met

====

I'd appreciate it if you could supply RED 1 values for the items below.
Test: HSP distance Ra and relative energy difference RED of solvents versus plant wax HSP values
Conditions: RED=Ra 1/Ro, Ro=7.1
One number for each entry.

| compound | measured_parameter | observed_value |
| --- | --- | --- |
| O=C(OCc1ccccc1)c1ccccc1 [Benzyl Benzoate] | RED 1 | 1.52 |
| OC1CCCCC1 [cyclohexanol] | RED 1 | 2.03 |

Report measured RED 1; entry is CC1CCCCC1 [Methyl Cyclohexane]
0.14

====

Test: HSP distance Ra and relative energy difference RED of solvents versus plant wax HSP values
Details: HSP distance to upper plant wax HSP values (δD=16.0-16.3, δP 0-2.5, δH=0-3.1)
measured_parameter: Ra 1
Numbers only.

As a guide, the following entries are already answered.
| compound | Ra 1 |
| --- | --- |
| CCCCCCOC(C)=O [hexyl acetate] | 6.7 |
| CC12CCC(CC1)C(C)(C)O2 | 5.6 |
| Cc1cccc(O)c1 | 16.0 |
| CCCCOC(C)=O [n-Butyl Acetate] | 7.3 |
| CC(C)(C)O | 15.6 |
| CC(=O)OC(C)(C)C [t-Butyl Acetate] | 7.3 |

In the following, a different compound is considered.
Report measured Ra 1; entry is CC1=CC(=O)CC(C)(C)C1
11.1

====

Test: HSP distance Ra and relative energy difference RED of solvents versus plant wax HSP values
Conditions: RED=Ra 2/Ro, Ro=7.1
I'd appreciate it if you could supply RED 2 values for the items below.
Answers are plain numbers.

As a guide, the following entries are already answered.
| compound | observed_value |
| --- | --- |
| C=CC(C)(O)CCC=C(C)C (centres unmarked) [linalool] | 0.54 |
| CCCCCCCO [heptanol] | 1.31 |
| CCCCOC(=O)CC [n-Butyl Propionate] | 0.60 |
| CC1=CC[C@@H](C(C)(C)O)CC1 [alpha terpineol] | 1.18 |
| CCCCCCOC(C)=O [hexyl acetate] | 0.42 |

Could you tell me RED 2 for each of these compounds? They are listed below.
1. C1CCCCC1 [cyclohexane]
2. CC(=O)OC(C)(C)C [t-Butyl Acetate]
3. CCCCOC(=O)c1ccccc1 [butyl benzoate]
4. CCCCOC(=O)CC(C)O (centres unmarked) [butyl-3-hydroxybutyrate]
5. CCCCCCCC(=O)OC [methyl octanoate]

[0.56, 0.57, 0.79, 1.31, 0.40]

Could you tell me RED 2 for each of these compounds? They are listed below.
1. CCCCCCC [heptane]
2. CC1COC(=O)O1 (centres unmarked) [Propylene Carbonate]
3. O=C(OCc1ccccc1)c1ccccc1 [Benzyl Benzoate]
4. Cc1cccc(O)c1 [m-Cresol]
5. CCCCCCCCCCCC(=O)OC [methyl dodecanoate]

[0.62, 2.42, 1.14, 1.71, 0.34]

Could you tell me RED 2 for each of these compounds? They are listed below.
1. CC1=CC(=O)CC(C)(C)C1 [isophorone]
2. CCCCOC(C)=O [n-Butyl Acetate]
3. CC12CCC(CC1)C(C)(C)O2 [eucalyptol]
4. CC(C)(C)O [t-Butyl Alcohol]
5. CC1CCCCC1 [Methyl Cyclohexane]

1.01
0.50
0.29
1.70
0.47

====

I'd appreciate it if you could supply RED 2 values for the items below.
Experiment: HSP distance Ra and relative energy difference RED of solvents versus plant wax HSP values
Conditions: RED=Ra 2/Ro, Ro=7.1
Description: The HSP distance between two molecules, conventionally called Ra, is the measure of how alike they are. The smaller the Ra, the more likely they are to be compatible. A quantity called the relative energy difference (RED) may be used to measure relative distance: […] A solvent with similar HSP values to these, or a solvent for which Ra (calculated as shown above) is small, or for which RED is less than or equal to 1, would be expected to partially solvate and soften plant leaf cuticle waxes.
Give bare numbers.

| molecule | RED 2 |
| --- | --- |
| CC(=O)OCCC(C)C [Iso-Pentyl Acetate] | 0.62 |
| O=C1OCCO1 [Ethylene Carbonate] | 2.76 |

In the following, a different molecule is considered.
Report measured RED 2; entry is CCCCOCCO [Ethylene Glycol Monobutyl Ether]
1.35
